Give pIC50 for every item shown.
System: MCF7 (breast cancer) cells
PROTOCOL TEXT: MTT cytotoxicity assay in MCF7 breast cancer cells
Type: cell-based
EXPERIMENTAL SETUP: Homo sapiens, MCF7, 65 h, 65 hours incubation, read-out: IC50, viability of MCF7 cells from the MTT assay
pIC50: −log10 of the molar value.

Sure, the documented pIC50 for CC(OCc1cn([C@H]2C[C@H](O)[C@@H](CO)O2)c(=O)[nH]c1=O)c1ccccc1 (some centres unmarked) is < 3.70

Sure, the documented pIC50 for O=c1[nH]c(=O)n([C@H]2C[C@H](O)[C@@H](CO)O2)cc1COC(c1ccccc1)c1ccccc1 is 3.80

Sure, the documented pIC50 for CC(C)C(OCc1c[nH]c(=O)[nH]c1=O)c1ccccc1 (centres unmarked) is < 3.70

Sure, the documented pIC50 for CC(C)COC(c1ccccc1)c1cn([C@H]2C[C@H](O)[C@@H](CO)O2)c(=O)[nH]c1=O (some centres unmarked) is < 3.82

Sure, the documented pIC50 for CC(OCc1cn([C@H]2C[C@H](O)[C@@H](CO)O2)c(=O)[nH]c1=O)c1ccccc1[N+](=O)[O-] (some centres unmarked) is ~3.77
